method-description: pH of the preservative solution upon completion of preservation
Assay type: physicochemical
condition-details: Good's buffer 25 mM, FBS 50% (v/v), medium 199
Provide the reported pH of the medium upon completion of the refrigerated storage for 7 days of each item.
Keep it simple and answer with nothing but the number.

Lookup: Any idea what pH of the medium upon completion of the refrigerated storage for 7 days was measured for O=S(=O)(O)CCNC(CO)(CO)CO [TES] ?
Found: 7.2

Lookup: Please do the same for O=S(=O)(O)CCCN1CCN(CCO)CC1 [EPPS] as well.
Found: 7.3

Lookup: Please do the same for O=S(=O)(O)CCN1CCN(CCO)CC1 [HEPES] as well.
Found: 7.0

Lookup: Please do the same for O=S(=O)(O)CCN1CCN(CCS(=O)(=O)O)CC1 [PIPES] as well.
Found: 7.0

Lookup: Please do the same for O=S(=O)(O)CCCN1CCOCC1 [MOPS, 3-Morpholinopropanesulfonic acid] as well.
Found: 7.0

====

System: bovine embryos
method-description: in vitro culture test of low-quality bovine embryos after 7 days of non-freezing preservation (survival, hatching)
Format: cell-based, Japanese Black Cattle and Holstein Cattle
condition-details: Good's buffer 25 mM, FBS 50% (v/v), medium 199, low temperature 7 days; out of N
Provide the reported Survival rate: number of surviving embryos of each item.

Lookup: Item O=S(=O)(O)CCCN1CCN(CCO)CC1 [EPPS] with bovine embryos - Survival rate: number of surviving embryos?
Found: 7

Lookup: Please do the same for O=S(=O)(O)CCNC(CO)(CO)CO [TES] as well.
Found: 6

Lookup: Please do the same for O=S(=O)(O)CCCN1CCOCC1 [MOPS, 3-Morpholinopropanesulfonic acid] as well.
Found: 9

Lookup: Please do the same for O=S(=O)(O)CCN1CCN(CCS(=O)(=O)O)CC1 [PIPES] as well.
Found: 8

Lookup: Please do the same for O=S(=O)(O)CCN1CCN(CCO)CC1 [HEPES] as well.
Found: 25

====

Tested on: bovine embryos
method-description: in vitro culture test of low-quality bovine embryos after 7 days of non-freezing preservation (survival, hatching)
Format: cell-based, Japanese Black Cattle and Holstein Cattle
condition-details: Good's buffer 25 mM, FBS 50% (v/v), medium 199, low temperature 7 days
Provide the reported Hatched embryos (%) of each item.
Could you kindly put the unit after your number?

Lookup: Any idea what Hatched embryos (%) was measured for O=S(=O)(O)CCCN1CCOCC1 [MOPS, 3-Morpholinopropanesulfonic acid] ?
Found: 25.0%

Lookup: Please do the same for O=S(=O)(O)CCCN1CCN(CCO)CC1 [EPPS] as well.
Found: 10.0%

Lookup: Please do the same for O=S(=O)(O)CCNC(CO)(CO)CO [TES] as well.
Found: 15.0%

Lookup: Please do the same for O=S(=O)(O)CCN1CCN(CCO)CC1 [HEPES] as well.
Found: 36.1%

Lookup: Please do the same for O=S(=O)(O)CCN1CCN(CCS(=O)(=O)O)CC1 [PIPES] as well.
Found: 25.0%

Source listed as patent US10392599B2.
